Here, each record is paired with measured kon data.
Molecular target: T1, recombinant human CD3ε-ECD His protein (human, UniProt P07766 23-126)
T1 construct: extracellular domain; also called human CD3ε-His; CD3ε antigen protein; not shown: His tag
T1 sequence (P07766 23-126): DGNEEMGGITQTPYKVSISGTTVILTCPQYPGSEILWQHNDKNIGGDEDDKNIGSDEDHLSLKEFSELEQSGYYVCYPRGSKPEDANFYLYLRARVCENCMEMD
Assay: SPR, antibody captured on Protein A chip

binder: 5-40.21-H3-L1 humanized antibody (antibody, human IgG1, kappa, V domains shown) VH: EVQLVQSGAEVKKPGASVKVSCKASGYTFTSYWMHWVRQAPGQGLEWMGNTYPGSGSTNYDEKFKSRVTITVDSSASTAYMELSSLRSEDTAVYYCTRDRYGVYYFDYWGQGTTVTVSS VL: DIVMTQSPDSLAVSLGERATINCKSSQSLLNSRTRKNYLAWYQQKPGQSPKLLIYWASTRESGVPDRFSGSGSGTDFTLTISSLQAEDVAVYYCTQSYNLRTFGGGTKVEIKR
measurementUnit: M⁻¹ s⁻¹
kon: 260000
--
binder: 1-22.6-1-H2a-L2a humanized antibody (antibody, human IgG1, kappa, V domains shown, also called 1-22.6-H2a-L2a) VH: EVQLVQSGSELKKPGASVKVSCKTSGYTFTSYGMSWVRQAPGQGLEWMGWINTYSGVPTYAQDFKGRFVFSLDTSVSTAYLQISSLKAEDTAVYYCARLKNNPFVWGQGTTVTVSS VL: DIVMTQSPDSLAVSLGERATINCRSSQLILHSSGNTYLEWYQQKPGQSPKLLIYKVSNRFSGVPDRFSGSGSGTDFTLTISSLQAEDVAVYYCFQGSHFPWTFGGGTKVEIKR
measurementUnit: M⁻¹ s⁻¹
kon: 83600
--
binder: 8-18.1-H1-L2 humanized antibody (antibody, human IgG1, kappa, V domains shown) VH: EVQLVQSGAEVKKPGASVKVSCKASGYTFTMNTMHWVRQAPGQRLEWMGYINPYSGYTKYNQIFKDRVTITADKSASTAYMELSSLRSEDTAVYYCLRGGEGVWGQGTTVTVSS VL: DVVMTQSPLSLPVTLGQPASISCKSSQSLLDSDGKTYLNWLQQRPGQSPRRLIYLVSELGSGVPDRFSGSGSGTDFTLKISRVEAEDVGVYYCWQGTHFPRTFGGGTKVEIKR
measurementUnit: M⁻¹ s⁻¹
kon: 274000

Hello, the source for this data is patent US20250136687A1, in case you need it.
